Source listed as PubChem BioAssay.

assay: basal HepG2 mitochondrial membrane potential changes, profiling panel, cell-based, JC-1 fluorescence, 24 h, 100 nL compound (AID 1167); settings: higher = more signal; note: test concentration not given here
metric name: z-score
Numbers only.

Lab note: each compound below needs its z-score filled in.
1. Cc1ccc(S[C@]2(C(=O)O)CC(=O)N(Cc3ccccc3Cl)[C@@H]2c2ccc(CO)cc2I)cc1
2. C#CCN([C@@H](Cc1ccc(O)cc1)C(=O)OC)[C@@H](/C=C/C1CC1)[C@H](O)Cc1ccccc1
3. CCOC(=O)C[C@H]1[C@H](OC(=O)c2cc3ccccc3oc2=O)[C@@H](NC(=O)Cc2ccc(OC)cc2)c2cc(OCCCO)ccc2N1C(=O)c1ccc2ccccc2n1
4. COc1ccc(CCN2C(=O)[C@@]3(Cc4ccccc42)c2ccccc2C(=O)N(Cc2ccccc2OC)[C@H]3c2ccc(CO)cc2)cc1

Result:
1. -0.508
2. -3.58
3. -0.917
4. 0.0826

Lab note: each compound below needs its z-score filled in.
1. CC(CO)N1C(=O)[C@@H]2[C@H]3C(=O)OCC=C[C@H]3OC23C=CCN(Cc2ccccc2)C(=O)[C@@H]13 (some centres not stated)
2. [N-]=[N+]=NCc1ccccc1C[C@]1(C(N)=O)N=C(c2ccc(OCCCO)cc2)O[C@H]1c1ccccc1

Result:
[-0.378, -0.417]

Just so you know, measured z-score for "C=C(/C(=C/C[C@H](OC(=O)c1ccncc1)c1ccc(CO)o1)c1cc(C(=O)OC)ccc1OC)C(C)C" came out at -0.133

---

test: small-molecule microarray binders of probe aWnt5a, primary screen, biochemical, biotinylated probe, 635/667 nm fluorescence (AID 1113); conditions: higher = more signal;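 note: score merges 667 nm fluorescence intensity with signal-to-noise per printed feature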
Entry flag: True if composite z-score reaches -0.05; False if it does not.

Some solved entries appear below for comparison.
Task: Dear colleague, could you confirm whether "O=C1c2ccccc2[C@](Cc2ccccc2I)(C(=O)NCC(F)(F)F)[C@H](c2ccc(CO)cc2)N1C1CCCCC1" has composite z-score at or above -0.05?
Result: True

Task: Dear colleague, could you confirm whether "COCCOC(=O)N1C(=O)[C@@]2(c3cc(C#Cc4ccc(OC)cc4)ccc31)[C@H](c1ccccc1OCCO)N1[C@H](c3ccccc3)[C@H](c3ccccc3)OC(=O)[C@H]1[C@@H]2C(=O)N1CCCCCCC1" has composite z-score at or above -0.05?
Result: True

Others:
Task: Dear colleague, could you confirm whether "CC1=C[C@@]2(CO)C(=O)[C@]3(CO3)[C@@H]1[C@H]1[C@]2(C)C=C(CO)C(=O)[C@]12CO2" has composite z-score at or above -0.05?
Result: False

Task: Dear colleague, could you confirm whether "COc1ccc(CCN2C(=O)[C@@]3(Cc4ccccc42)c2ccccc2C(=O)N(Cc2ccccc2OC)[C@H]3c2ccc(CO)cc2)cc1" has composite z-score at or above -0.05?
Result: False

Task: Dear colleague, could you confirm whether "COCCOC(=O)N1C(=O)[C@@]2(c3cc(C#CCCO)ccc31)[C@H](c1ccccc1OCCO)N1[C@H](c3ccccc3)[C@H](c3ccccc3)OC(=O)[C@H]1[C@@H]2C(=O)Nc1nc2ccccc2s1" has composite z-score at or above -0.05?
Result: False

Task: Dear colleague, could you confirm whether "Cc1ccc(S[C@]2(C(=O)O)CC(=O)N(Cc3ccccc3Cl)[C@@H]2c2ccc(CO)cc2I)cc1" has composite z-score at or above -0.05?
Result: False

---

assay: basal HepG2 mitochondrial membrane potential changes, profiling panel, cell-based, JC-1 fluorescence, 24 h, 100 nL compound (AID 1167); conditions: higher = more signal; note: test concentration not given here
Entry flag: fulfilled if z-score reaches -0.09; not fulfilled if it does not.

Task: Dear colleague, could you confirm whether "COc1cc2c(cc1OC)CN(C(=O)[C@@H]1[C@H]3C(=O)O[C@H](c4ccccc4)[C@H](c4ccccc4)N3[C@H](c3ccc(OCCO)cc3)[C@@]13C(=O)Nc1ccccc13)CC2" has z-score at or above -0.09?
Result: not fulfilled

Task: Dear colleague, could you confirm whether "COCCCNC(=O)[C@]1(CCS(=O)(=O)c2ccccc2)N=C(c2ccc(OCCCO)cc2)O[C@@H]1c1ccccc1N=[N+]=[N-]" has z-score at or above -0.09?
Result: not fulfilled

Task: Dear colleague, could you confirm whether O=C1OCC=C[C@H]2OC34C=CCN(Cc5ccccc5)C(=O)[C@H]3N(CCCCCCO)C(=O)[C@@H]4[C@@H]12 (stereo partly specified) has z-score at or above -0.09?
Result: not fulfilled

Task: Dear colleague, could you confirm whether "CO[C@H]1O[C@H](CO)[C@@H](OC(=O)Nc2ccccc2-c2ccccc2)[C@H](OC(=O)Nc2ccc3c(c2)OCO3)[C@H]1OC(=O)Nc1ccc2c(c1)OCO2" has z-score at or above -0.09?
Result: fulfilled

Task: Dear colleague, could you confirm whether O=C1OCCC=C[C@H]2OC34C=CCN(Cn5nnc6ccccc65)C(=O)[C@H]3N(CCCCCCO)C(=O)[C@@H]4C12 (stereo partly specified) has z-score at or above -0.09?
Result: fulfilled

Task: Dear colleague, could you confirm whether "COc1ccc(CCNC(=O)[C@@H]2c3ccccc3C(=O)N(Cc3cc(C(F)(F)F)cc(C(F)(F)F)c3)[C@H]2c2ccc(CO)cc2)cc1" has z-score at or above -0.09?
Result: fulfilled

---

test: MM1S myeloma cell viability, profiling panel, resazurin fluorescence, basal, 24 h, PK04 Diversity Set (AID 1174); conditions: higher = more signal, called active from +8 up or from −8 down;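 note: MM1S multiple myeloma cell line; test concentration not given here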
Hi there, I'd appreciate the recorded z-score for every entry that follows.
Numbers only.

Some solved entries appear below for comparison.
Just so you know, measured z-score for "C=CCOC(=O)[C@H]1[C@@H]2C(=O)O[C@@H](c3ccccc3)[C@@H](c3ccccc3)N2[C@@H](c2ccc(OCCOC(=O)[C@@H]3C[C@@H]4C(=O)N[C@@H](CCCCNC(C)=O)C(=O)N4[C@@H]3c3ccc(O)cc3)cc2)[C@]12C(=O)Nc1ccc(I)cc12" came out at -1.77

Just so you know, measured z-score for "COCCOC(=O)N1C(=O)[C@@]2(c3cc(C#CC4=CCCCC4)ccc31)[C@H](c1ccc(O)cc1)N1[C@H](c3ccccc3)[C@H](c3ccccc3)OC(=O)[C@H]1[C@@H]2C(=O)N1CCN(c2ncccn2)CC1" came out at 0.182

Just so you know, measured z-score for "COC(=O)[C@@]1(Cc2ccccc2)[C@H]2c3cc(C(=O)N(C)C)n(Cc4c(CO)[nH]cc(C)c4=O)c3C[C@H]2CN1C(=O)c1ccccc1" came out at -0.706

Just so you know, measured z-score for "COCCOC(=O)N1C(=O)[C@@]2(c3cc(C#Cc4ccc(OC)cc4)ccc31)[C@H](C(=O)Nc1nc3ccccc3s1)[C@H]1C(=O)O[C@H](c3ccccc3)[C@H](c3ccccc3)N1[C@@H]2c1ccc(O)cc1" came out at 0.529

Just so you know, measured z-score for CCCCCCCCCCC(O)C1C=CC2C(=O)N(C)C(=O)C2N1Nc1ccc([N+](=O)[O-])cc1[N+](=O)[O-] (stereo not drawn) came out at -1.64

Lab note: each compound below needs its z-score filled in.
1. CN1C(=O)C2C=CC(C(O)c3cccc4ccccc34)N(N3CCCCC3)C2C1=O (stereo not drawn)
2. CN(C)C(=O)[C@@]1(Cc2ccccc2CN=[N+]=[N-])N=C(c2ccc(OCCCO)cc2)O[C@H]1c1ccccc1CN=[N+]=[N-]
3. C=CC[C@]1(C(=O)O)COC(c2ccc(OCCCO)cc2)=N1
4. COC(=O)c1cn(C[C@@H](Cc2ccccc2)NC(=O)N[C@H](CO)CCc2oc(C(C)=O)c(C(=O)OC)c2C(=O)OC)nn1
5. [N-]=[N+]=Nc1ccccc1[C@H]1OC(c2ccc(OCCCO)cc2)=N[C@@]1(CCS(=O)(=O)c1ccccc1)C(=O)NCCN1CCOCC1
6. COC(=O)[C@H](Cc1ccccc1)N1CC(/C=C/C2CC2)=C[C@H]1[C@H](O)Cc1ccccc1
7. CC1=C[C@@]2(CO)C(=O)[C@]3(CO3)[C@@H]1[C@H]1[C@]2(C)C=C(CO)C(=O)[C@]12CO2
8. CC(=O)NCCCC[C@@H]1NC(=O)[C@@H]2C[C@H](C(=O)NCCCC[N+](C)(C)C)[C@H](c3ccc(O)cc3)N2C1=O

Result:
[-1.41, -2.15, 0.546, 0.438, 0.131, -3.01, -0.54, -1.23]

---

Hi there, I'd appreciate the recorded z-score for every entry that follows.
experiment: FRG1 promoter luciferase signal modulators, primary screen, FRG1 inhibition for FSHD, cell-based, C2C12 myotubes, firefly/Renilla luciferase, luminescence (AID 1084); conditions: higher = more signal, called active from +8 up or from −8 down
The source made the active and inactive calls.

Some solved entries appear below for comparison.
Just so you know, measured z-score for "COC(=O)[C@@]1(Cc2ccccc2)[C@H]2c3cc(C(=O)N(C)C)n(CCN4CNCC4=O)c3C[C@H]2CN1C(=O)c1ccccc1" came out at 0.37 (inactive)

Just so you know, measured z-score for "CN(C)C(=O)[C@@]1(CCS(=O)(=O)c2ccccc2)N=C(c2ccc(OCCCO)cc2)O[C@H]1c1ccccc1" came out at -0.522 (inactive)

Lab note: each molecule below needs its z-score filled in.
1. COc1cc(CO)cc(I)c1O[C@H]1C=C(C(=O)NCCO)C[C@@H](NCc2ccc(F)cc2)[C@@H]1O
2. COc1ccccc1CN1C(=O)c2ccccc2[C@](Cc2ccccc2I)(C(=O)NCC(F)(F)F)[C@@H]1c1ccc(CO)cc1
3. C=CCC(OC(C)=O)[C@@H]1[C@@H](N(Cc2cccc3ccccc23)C(=O)Cc2ccc(F)cc2)c2cc(OCCCO)ccc2N1C(=O)c1ccc2ccccc2n1 (stereo not given in full)
4. COC(=O)[C@@]1(Cc2ccc(F)cc2)[C@H]2c3cc(C(=O)N4CCCC4)n(CCN4CNCC4=O)c3C[C@H]2CN1C(=O)c1ccccc1
5. CC(CO)N1C(=O)[C@@H]2[C@H]3C(=O)OCC=C[C@H]3OC23C=CCN(C(C)(C)C)C(=O)[C@@H]13 (stereo not given in full)

Result:
-1.14 (inactive)
-0.719 (inactive)
-1.11 (inactive)
4.7 (inactive)
1.76 (inactive)
